# Tested on: PSMA-expressing LNCaP tumor xenografts
# experimental protocol: Ex vivo biodistribution in LNCaP tumor-bearing mice
# assay conditions: LNCaP tumor-bearing mice, 1 h post injection, mean ± SD, n = 4
measured parameter: Adrenal glands uptake (%ID/g)
Give just the number in %ID/g; leave the unit off.

The measured Adrenal glands uptake associated with N#C[C@@H]1CC(F)(F)CN1C(=O)CNC(=O)c1ccnc2ccc(OCc3cn(CC(=O)N[C@@H](CCCCNC(=O)CN4CCN(CC(=O)[O-])CCN(CC(=O)[O-])CCN(CC(=O)[O-])CC4)C(=O)NCC(=O)NC[C@H]4CC[C@H](C(=O)N[C@@H](Cc5c6ccccc6cc6ccccc56)C(=O)NCCCC[C@H](NC(=O)N[C@@H](CCC(=O)O)C(=O)O)C(=O)O)CC4)nn3)cc12.[68Ga+3] [[^68Ga]Ga-AV01038] reads 3.69

----------
# Test system: PSMA-expressing LNCaP tumor xenografts
# experimental protocol: Ex vivo biodistribution in LNCaP tumor-bearing mice
# assay conditions: LNCaP tumor-bearing mice, 1 h post injection, mean ± SD, n = 4
Listed below: Muscle uptake values for each entry.
Give just the number in %ID/g; leave the unit off.

N#C[C@@H]1CC(F)(F)CN1C(=O)CNC(=O)c1ccnc2ccc(OCCCN3CCN(C(=O)CN4CCN(CC(=O)[O-])CCN(CC(=O)[O-])CCN(CC(=O)[O-])CC4)CC3)cc12.[68Ga+3] [[^68Ga]Ga-FAPI-04, reference compound] : 1.04
N#C[C@@H]1CC(F)(F)CN1C(=O)CNC(=O)c1ccnc2ccc(-c3cn(CC(=O)N[C@@H](CCCCNC(=O)CN4CCN(CC(=O)[O-])CCN(CC(=O)[O-])CCN(CC(=O)[O-])CC4)C(=O)NCC(=O)NC[C@H]4CC[C@H](C(=O)N[C@@H](Cc5c6ccccc6cc6ccccc56)C(=O)NCCCC[C@H](NC(=O)N[C@@H](CCC(=O)O)C(=O)O)C(=O)O)CC4)nn3)cc12.[68Ga+3] [[^68Ga]Ga-AV01030] : 1.59

Could you now consider this next molecule?
The measured Muscle uptake associated with N#C[C@@H]1CC(F)(F)CN1C(=O)CNC(=O)c1ccnc2ccc(OCc3cn(CC(=O)N[C@@H](CCCCNC(=O)CN4CCN(CC(=O)[O-])CCN(CC(=O)[O-])CCN(CC(=O)[O-])CC4)C(=O)NCC(=O)NC[C@H]4CC[C@H](C(=O)N[C@@H](Cc5c6ccccc6cc6ccccc56)C(=O)NCCCC[C@H](NC(=O)N[C@@H](CCC(=O)O)C(=O)O)C(=O)O)CC4)nn3)cc12.[68Ga+3] [[^68Ga]Ga-AV01038] reads 1.68

----------
# Tested on: PSMA-expressing LNCaP tumor xenografts
# experimental protocol: Ex vivo biodistribution in LNCaP tumor-bearing mice
# assay conditions: LNCaP tumor-bearing mice, 1 h post injection, mean ± SD, n = 4
Listed below: Stomach uptake values for each entry.
Give just the number in %ID/g; leave the unit off.

Solved cases (2 shown):
N#C[C@@H]1CC(F)(F)CN1C(=O)CNC(=O)c1ccnc2ccc(OCc3cn(CC(=O)N[C@@H](CCCCNC(=O)CN4CCN(CC(=O)[O-])CCN(CC(=O)[O-])CCN(CC(=O)[O-])CC4)C(=O)NCC(=O)NC[C@H]4CC[C@H](C(=O)N[C@@H](Cc5c6ccccc6cc6ccccc56)C(=O)NCCCC[C@H](NC(=O)N[C@@H](CCC(=O)O)C(=O)O)C(=O)O)CC4)nn3)cc12.[68Ga+3] [[^68Ga]Ga-AV01038] : 0.64
N#C[C@@H]1CC(F)(F)CN1C(=O)CNC(=O)c1ccnc2ccc(-c3cn(CC(=O)N[C@@H](CCCCNC(=O)CN4CCN(CC(=O)[O-])CCN(CC(=O)[O-])CCN(CC(=O)[O-])CC4)C(=O)NCC(=O)NC[C@H]4CC[C@H](C(=O)N[C@@H](Cc5c6ccccc6cc6ccccc56)C(=O)NCCCC[C@H](NC(=O)N[C@@H](CCC(=O)O)C(=O)O)C(=O)O)CC4)nn3)cc12.[68Ga+3] [[^68Ga]Ga-AV01030] : 0.44

The measured Stomach uptake associated with N#C[C@@H]1CC(F)(F)CN1C(=O)CNC(=O)c1ccnc2ccc(OCCCN3CCN(C(=O)CN4CCN(CC(=O)[O-])CCN(CC(=O)[O-])CCN(CC(=O)[O-])CC4)CC3)cc12.[68Ga+3] [[^68Ga]Ga-FAPI-04, reference compound] reads 0.26

The measured Stomach uptake associated with N#C[C@@H]1CC(F)(F)CN1C(=O)CNC(=O)c1ccnc2ccc(OCCCc3cn(CC(=O)N[C@@H](CCCCNC(=O)CN4CCN(CC(=O)[O-])CCN(CC(=O)[O-])CCN(CC(=O)[O-])CC4)C(=O)NCC(=O)NC[C@H]4CC[C@H](C(=O)N[C@@H](Cc5c6ccccc6cc6ccccc56)C(=O)NCCCC[C@H](NC(=O)N[C@@H](CCC(=O)O)C(=O)O)C(=O)O)CC4)nn3)cc12.[68Ga+3] [[^68Ga]Ga-AV01017] reads 0.64

----------
# Tested on: PSMA-expressing LNCaP tumor xenografts
# experimental protocol: Ex vivo biodistribution in LNCaP tumor-bearing mice
# assay conditions: LNCaP tumor-bearing mice, 1 h post injection, mean ± SD, n = 4
measured parameter: Tumor/kidney uptake ratio

The measured Tumor/kidney uptake ratio associated with N#C[C@@H]1CC(F)(F)CN1C(=O)CNC(=O)c1ccnc2ccc(OCc3cn(CC(=O)N[C@@H](CCCCNC(=O)CN4CCN(CC(=O)[O-])CCN(CC(=O)[O-])CCN(CC(=O)[O-])CC4)C(=O)NCC(=O)NC[C@H]4CC[C@H](C(=O)N[C@@H](Cc5c6ccccc6cc6ccccc56)C(=O)NCCCC[C@H](NC(=O)N[C@@H](CCC(=O)O)C(=O)O)C(=O)O)CC4)nn3)cc12.[68Ga+3] [[^68Ga]Ga-AV01038] reads 0.10 ± 0.02

----------
# Test system: FAP-expressing HEK293T:hFAP tumor xenografts
# experimental protocol: Ex vivo biodistribution in HEK293T:hFAP tumor-bearing mice
# assay conditions: 1 h post injection, mean ± SD, n = 4
measured parameter: Lacrimal gland uptake (%ID/g)
Give just the number in %ID/g; leave the unit off.

Bench note, FAP-expressing HEK293T:hFAP tumor xenografts: entry N#C[C@@H]1CC(F)(F)CN1C(=O)CNC(=O)c1ccnc2ccc(-c3cn(CC(=O)N[C@@H](CCCCNC(=O)CN4CCN(CC(=O)[O-])CCN(CC(=O)[O-])CCN(CC(=O)[O-])CC4)C(=O)NCC(=O)NC[C@H]4CC[C@H](C(=O)N[C@@H](Cc5c6ccccc6cc6ccccc56)C(=O)NCCCC[C@H](NC(=O)N[C@@H](CCC(=O)O)C(=O)O)C(=O)O)CC4)nn3)cc12.[68Ga+3] [[^68Ga]Ga-AV01030] , its Lacrimal gland uptake = 0.20

----------
# Test system: FAP-expressing HEK293T:hFAP tumor xenografts
# experimental protocol: Ex vivo biodistribution in HEK293T:hFAP tumor-bearing mice
# assay conditions: 1 h post injection, mean ± SD, n = 4
measured parameter: Brain uptake (%ID/g)
Give just the number in %ID/g; leave the unit off.

N#C[C@@H]1CC(F)(F)CN1C(=O)CNC(=O)c1ccnc2ccc(OCCCc3cn(CC(=O)N[C@@H](CCCCNC(=O)CN4CCN(CC(=O)[O-])CCN(CC(=O)[O-])CCN(CC(=O)[O-])CC4)C(=O)NCC(=O)NC[C@H]4CC[C@H](C(=O)N[C@@H](Cc5c6ccccc6cc6ccccc56)C(=O)NCCCC[C@H](NC(=O)N[C@@H](CCC(=O)O)C(=O)O)C(=O)O)CC4)nn3)cc12.[68Ga+3] [[^68Ga]Ga-AV01017] : 0.21

Bench note, FAP-expressing HEK293T:hFAP tumor xenografts: entry N#C[C@@H]1CC(F)(F)CN1C(=O)CNC(=O)c1ccnc2ccc(OCc3cn(CC(=O)N[C@@H](CCCCNC(=O)CN4CCN(CC(=O)[O-])CCN(CC(=O)[O-])CCN(CC(=O)[O-])CC4)C(=O)NCC(=O)NC[C@H]4CC[C@H](C(=O)N[C@@H](Cc5c6ccccc6cc6ccccc56)C(=O)NCCCC[C@H](NC(=O)N[C@@H](CCC(=O)O)C(=O)O)C(=O)O)CC4)nn3)cc12.[68Ga+3] [[^68Ga]Ga-AV01038] , its Brain uptake = 0.13

----------
Listed below: Blood uptake values for each entry.
# System: FAP-expressing HEK293T:hFAP tumor xenografts
# experimental protocol: Ex vivo biodistribution in HEK293T:hFAP tumor-bearing mice
# assay conditions: 1 h post injection, mean ± SD, n = 4
Give just the number in %ID/g; leave the unit off.

Solved cases (2 shown):
N#C[C@@H]1CC(F)(F)CN1C(=O)CNC(=O)c1ccnc2ccc(-c3cn(CC(=O)N[C@@H](CCCCNC(=O)CN4CCN(CC(=O)[O-])CCN(CC(=O)[O-])CCN(CC(=O)[O-])CC4)C(=O)NCC(=O)NC[C@H]4CC[C@H](C(=O)N[C@@H](Cc5c6ccccc6cc6ccccc56)C(=O)NCCCC[C@H](NC(=O)N[C@@H](CCC(=O)O)C(=O)O)C(=O)O)CC4)nn3)cc12.[68Ga+3] [[^68Ga]Ga-AV01030] : 5.68
N#C[C@@H]1CC(F)(F)CN1C(=O)CNC(=O)c1ccnc2ccc(OCCCN3CCN(C(=O)CN4CCN(CC(=O)[O-])CCN(CC(=O)[O-])CCN(CC(=O)[O-])CC4)CC3)cc12.[68Ga+3] [[^68Ga]Ga-FAPI-04, reference compound] : 1.07

Could you now consider this next molecule?
The measured Blood uptake associated with O=C([O-])CN1CCN(CC(=O)[O-])CCN(CC(=O)NC[C@H]2CC[C@H](C(=O)N[C@@H](Cc3c4ccccc4cc4ccccc34)C(=O)NCCCC[C@H](NC(=O)N[C@@H](CCC(=O)O)C(=O)O)C(=O)O)CC2)CCN(CC(=O)[O-])CC1.[68Ga+3] [[^68Ga]Ga-HTK03041, reference compound] reads 0.71
